meta.source: paper PMC2756588

target.under.test: T1, Sla1-3, P32790
T1 sequence (P32790 344-424, looked up): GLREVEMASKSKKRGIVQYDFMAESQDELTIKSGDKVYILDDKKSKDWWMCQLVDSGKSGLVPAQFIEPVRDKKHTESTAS
assay.details: SPOT array
test.parameters: median of control spots 5475
Binary label based on SPOT intensity with cut-off 20: below gives T, not below gives F.

Worked examples follow.
* LLLLFVPDSPYDPAI | T
* PKMLPIPSKPTLFDL | T
* RLSFFFPLDPAYIRN | F
* KRKRRLPVSEDTNTK | F
* KLSRGRYGLPLSSRP | F
* RNNRPVPPPPPMRTT | T
* FPGKKSPRLPHRNKK | T
* SKAKRPKFLLDLQIK | T

Field: next binder
stdin: Decide: SPOT intensity of "VFQFQMPTTPISTKM" strictly below 20?
stdout: T
